tested on: CP256; assay: qHTS profiling for inhibitors of Plasmodium falciparum proliferation (AID 504749); note: nearly all actives have a fitted effect of over 60% in size; settings: P. falciparum in erythrocytes, SYBR Green DNA, 72 h; series mostly up to 28.7 µM
Results filed as inconclusive are left out. Activity calls are given as the source filed them. Calls come from the whole dose curve; as a rule, active = well fitted inhibition curve with a large enough effect; inconclusive = small, poorly fitted or top-dose-only effect; inactive = flat fitted curve, though single readings scatter.
Classes used: active, inactive

C=C(CC[C@@H](C)[C@H]1CCC2[C@]1(C)CC[C@]13C[C@@]14CCC(OC(=O)/C=C/c1ccc(O)c(OC)c1)C(C)(C)[C@@H]4CC[C@@]23C)C(C)C (some centres not stated); inactive
CCC1OC(=O)C[C@H](O)C(C)[C@@H](O[C@@H]2OC(C)C(O)C(N(C)C)C2O)C(CCN2CC(C)CC(C)C2)CC(C)C(=O)/C=C/C(C)=C\[C@@H]1COC1OC(C)C(O)C(OC)C1OC (some centres not stated); active
NC(C(=O)O)c1ccc(O)cc1 (configuration not stated); inactive
CC(O)C(N)C(=O)O (configuration not stated); inactive
CC(C)C(=O)OCC(=O)[C@@]12OC(C3CCCCC3)O[C@@H]1CC1C3CCC4=CC(=O)C=C[C@]4(C)C3[C@@H](O)C[C@@]12C (some centres not stated); active
NC(=O)OC[C@@H]1[C@H](NC(=O)/C(=N/OCC(=O)O)c2csc(N)n2)C(=O)N1S(=O)(=O)O; inactive
Nc1nc(Cl)nc2c1ncn2[C@@H]1O[C@H](CO)[C@H](O)C1F (some centres not stated); inactive
